# credit: ChEMBL document CHEMBL1833803

experimental_details: Plasma clearance in rat at 1 mg/kg, iv
Assay type: ADME, organism-based
Parameters: dose 1 mg/kg, route intravenous
readout_type: clearance (mL/min/kg)

| smi | unit | value_measured |
| --- | --- | --- |
| NC(=O)c1cnc(N[C@H](C2CC2)C(F)(F)F)c2c1[nH]c1cc(-c3cnc(N)nc3)ccc12 | mL/min/kg | 7.4 |

---

target_system: Tyrosine-protein kinase JAK2 (Homo sapiens)
Sequence (O60674 whole entry): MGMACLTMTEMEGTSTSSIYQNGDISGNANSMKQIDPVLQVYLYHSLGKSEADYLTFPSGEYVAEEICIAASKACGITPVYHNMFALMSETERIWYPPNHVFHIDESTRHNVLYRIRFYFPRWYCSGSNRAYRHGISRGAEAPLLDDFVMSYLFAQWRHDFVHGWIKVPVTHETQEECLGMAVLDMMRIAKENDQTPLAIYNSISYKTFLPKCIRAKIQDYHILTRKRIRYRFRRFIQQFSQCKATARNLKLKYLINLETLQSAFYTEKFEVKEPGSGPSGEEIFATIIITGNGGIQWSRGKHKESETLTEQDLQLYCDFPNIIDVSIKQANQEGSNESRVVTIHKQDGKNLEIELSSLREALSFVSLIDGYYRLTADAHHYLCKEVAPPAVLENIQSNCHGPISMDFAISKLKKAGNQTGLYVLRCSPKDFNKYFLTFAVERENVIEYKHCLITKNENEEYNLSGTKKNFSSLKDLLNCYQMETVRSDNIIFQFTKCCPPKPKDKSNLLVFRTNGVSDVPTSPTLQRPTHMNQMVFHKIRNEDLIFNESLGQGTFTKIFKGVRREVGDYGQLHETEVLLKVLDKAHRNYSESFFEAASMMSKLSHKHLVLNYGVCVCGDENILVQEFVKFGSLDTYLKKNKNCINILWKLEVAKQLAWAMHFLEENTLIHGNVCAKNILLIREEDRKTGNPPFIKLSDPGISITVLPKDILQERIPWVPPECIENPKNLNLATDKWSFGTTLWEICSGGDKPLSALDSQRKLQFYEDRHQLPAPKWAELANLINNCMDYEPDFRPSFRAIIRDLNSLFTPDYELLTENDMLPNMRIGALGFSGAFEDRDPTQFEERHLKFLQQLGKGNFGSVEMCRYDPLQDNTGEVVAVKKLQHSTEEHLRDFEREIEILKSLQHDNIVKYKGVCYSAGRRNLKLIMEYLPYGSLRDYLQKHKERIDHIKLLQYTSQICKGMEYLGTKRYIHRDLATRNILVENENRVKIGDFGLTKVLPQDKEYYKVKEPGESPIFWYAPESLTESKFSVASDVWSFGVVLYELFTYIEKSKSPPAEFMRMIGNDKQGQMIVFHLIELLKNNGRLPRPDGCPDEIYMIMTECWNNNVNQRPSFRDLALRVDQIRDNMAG
experimental_details: Inhibition of JAK2 using biotin-EQEDEPEGDYFEWLE- NH2 as substrate
readout_type: log10 of IC50 (log10 of the value in µM)

| smi | log10 of IC50 |
| --- | --- |
| NC(=O)c1cnc(N[C@H](C2CC2)C(F)(F)F)c2c1[nH]c1cc(-c3ccc(N)nc3)ccc12 | -2.70 |
| CCCNc1ncc(C(N)=O)c2[nH]c3ccc(F)cc3c12 | -1.17 |
| NC(=O)c1cnc(N[C@H](C2CC2)C(F)(F)F)c2c1[nH]c1cc(-c3ccc(N4CCS(=O)(=O)CC4)nn3)ccc12 | -2.70 |
| NC(=O)c1cnc(N2CCCCC2)c2c1[nH]c1ccc(F)cc12 | -0.72 |
| CCCCNc1ncc(C(N)=O)c2[nH]c3ccc(F)cc3c12 | -1.31 |
| NC(=O)c1cnc(NC2CCCCC2)c2c1[nH]c1cccc(Cl)c12 | -0.96 |
| NC(=O)c1cnc(NC(C2CC2)C2CC2)c2c1[nH]c1cc(-c3cccnn3)ccc12 | -2.70 |
| NC(=O)c1cnc(NC2CCCCC2)c2c1[nH]c1ccc(F)cc12 | -1.77 |
| NC(=O)c1cnc(NC2CCCCC2)c2c1[nH]c1cc(-c3cc[nH]n3)ccc12 | -1.64 |
| CCN(c1ncc(C(N)=O)c2[nH]c3ccc(F)cc3c12)C1CCCCC1 | 0.43 |

---

target_system: CYP3A4 (Homo sapiens, UniProt P08684)
Sequence (P08684 whole entry): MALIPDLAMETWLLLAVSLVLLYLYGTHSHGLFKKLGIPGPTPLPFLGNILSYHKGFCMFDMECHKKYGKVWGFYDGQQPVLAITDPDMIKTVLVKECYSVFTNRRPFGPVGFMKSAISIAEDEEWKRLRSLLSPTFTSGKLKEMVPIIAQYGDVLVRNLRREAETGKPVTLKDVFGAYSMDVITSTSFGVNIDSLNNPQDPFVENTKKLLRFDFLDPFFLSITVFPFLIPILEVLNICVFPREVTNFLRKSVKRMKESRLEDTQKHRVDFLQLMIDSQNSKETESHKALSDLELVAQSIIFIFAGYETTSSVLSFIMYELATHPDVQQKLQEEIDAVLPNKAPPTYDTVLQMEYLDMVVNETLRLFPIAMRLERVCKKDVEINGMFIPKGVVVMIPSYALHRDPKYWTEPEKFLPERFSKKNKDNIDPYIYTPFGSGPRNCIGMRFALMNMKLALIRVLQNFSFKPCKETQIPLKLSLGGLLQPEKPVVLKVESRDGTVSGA
experimental_details: Inhibition of CYP3A4 at 10 uM
Type: ADME
Binary classification by inhibition at 10 µM, with 60% as an inclusive lower bound for class 1; all other cases are class 0.

| smi | target_system | label_class |
| --- | --- | --- |
| NC(=O)c1cnc(N[C@H](C2CC2)C(F)(F)F)c2c1[nH]c1cc(-c3cn[nH]c3)ccc12 | CYP3A4 (Homo sapiens, UniProt P08684) | class 1 |
| C[C@H](Nc1ncc(C(N)=O)c2[nH]c3cc(-c4cnn(C)c4)ccc3c12)C(C)(C)C | CYP3A4 (Homo sapiens, UniProt P08684) | class 0 |
| NC(=O)c1cnc(NC(C2CC2)C2CC2)c2c1[nH]c1cc(-c3cnc(N)nc3)ccc12 | CYP3A4 (Homo sapiens, UniProt P08684) | class 0 |
| NC(=O)c1cnc(N[C@H](C2CC2)C(F)(F)F)c2c1[nH]c1cc(-c3ccc(N)nc3)ccc12 | CYP3A4 (Homo sapiens, UniProt P08684) | class 1 |
| NC(=O)c1cnc(NC(C2CC2)C2CC2)c2c1[nH]c1cc(-c3cn[nH]c3)ccc12 | CYP3A4 (Homo sapiens, UniProt P08684) | class 1 |

---

target_system: Tyrosine-protein kinase JAK3 (Homo sapiens)
Sequence (P52333 whole entry): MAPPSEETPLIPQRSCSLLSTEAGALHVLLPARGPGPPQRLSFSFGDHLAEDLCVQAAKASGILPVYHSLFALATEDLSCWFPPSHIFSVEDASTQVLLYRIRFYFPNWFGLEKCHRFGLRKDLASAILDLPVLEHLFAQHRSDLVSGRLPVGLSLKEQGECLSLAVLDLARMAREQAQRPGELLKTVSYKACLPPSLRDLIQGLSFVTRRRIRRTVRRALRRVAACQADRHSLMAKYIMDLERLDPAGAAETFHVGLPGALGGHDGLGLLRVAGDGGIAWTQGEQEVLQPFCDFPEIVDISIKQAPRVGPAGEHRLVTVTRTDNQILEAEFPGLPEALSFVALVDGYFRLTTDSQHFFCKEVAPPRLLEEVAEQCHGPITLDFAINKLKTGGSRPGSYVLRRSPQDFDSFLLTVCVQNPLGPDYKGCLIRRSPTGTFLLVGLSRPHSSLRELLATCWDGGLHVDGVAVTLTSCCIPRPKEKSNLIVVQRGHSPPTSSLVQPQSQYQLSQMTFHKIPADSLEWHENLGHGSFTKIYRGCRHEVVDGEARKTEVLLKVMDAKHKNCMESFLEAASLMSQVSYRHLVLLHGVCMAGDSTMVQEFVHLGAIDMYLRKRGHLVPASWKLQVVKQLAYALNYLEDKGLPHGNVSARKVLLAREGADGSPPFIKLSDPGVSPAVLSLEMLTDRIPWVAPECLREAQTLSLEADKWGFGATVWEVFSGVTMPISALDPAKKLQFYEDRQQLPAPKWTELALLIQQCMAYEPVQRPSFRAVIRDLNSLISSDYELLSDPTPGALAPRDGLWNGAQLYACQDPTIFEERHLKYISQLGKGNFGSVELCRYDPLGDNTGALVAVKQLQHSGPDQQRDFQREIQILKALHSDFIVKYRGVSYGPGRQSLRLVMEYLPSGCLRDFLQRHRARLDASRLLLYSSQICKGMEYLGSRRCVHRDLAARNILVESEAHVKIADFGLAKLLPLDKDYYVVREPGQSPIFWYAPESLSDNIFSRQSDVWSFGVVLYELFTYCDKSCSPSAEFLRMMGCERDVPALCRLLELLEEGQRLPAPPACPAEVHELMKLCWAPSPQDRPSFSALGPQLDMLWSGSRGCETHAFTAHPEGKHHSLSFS
experimental_details: Inhibition of JAK3 using biotin-EQEDEPEGDYFEWLE- NH2 as substrate
log10 of IC50 values, listed per item
readout_type: log10 of IC50 (log10 of the value in nM)

| compound | log10 of IC50 |
| --- | --- |
| Cn1cc(-c2ccc3c(c2)[nH]c2c(C(N)=O)cnc(N[C@@H](C4CC4)C(F)(F)F)c23)cn1 | 3.28 |
| NC(=O)c1cnc(NC(C2CC2)C2CC2)c2c1[nH]c1cc(-c3cn[nH]c3)ccc12 | 2.34 |
| NC(=O)c1cnc(NC(C2CC2)C2CC2)c2c1[nH]c1cc(-c3cnc(N)nc3)ccc12 | 2.34 |
| CCC(Nc1ncc(C(N)=O)c2[nH]c3cc(-c4cnn(C)c4)ccc3c12)C1CC1 (stereo not drawn) | 2.23 |
| CC(C)[C@@H](Nc1ncc(C(N)=O)c2[nH]c3cc(-c4cnn(C)c4)ccc3c12)C(F)(F)F | 2.75 |
| NC(=O)c1cnc(N[C@H](C2CC2)C(F)(F)F)c2c1[nH]c1cc(-c3ccc(N4CCS(=O)(=O)CC4)nn3)ccc12 | 2.20 |
| NC(=O)c1cnc(NC(C2CC2)C2CC2)c2c1[nH]c1cc(-c3cnc(N)cn3)ccc12 | 2.81 |
| NC(=O)c1cnc(N[C@H](C2CC2)C(F)(F)F)c2c1[nH]c1cc(-c3cnc(N4CCOCC4)nc3)ccc12 | 2.63 |
| Cn1cc(-c2ccc3c(c2)[nH]c2c(C(N)=O)cnc(N[C@H](C4CCC4)C(F)(F)F)c23)cn1 | 3.23 |
| Cn1cc(-c2ccc3c(c2)[nH]c2c(C(N)=O)cnc(NC(C4CC4)C4CC4)c23)cn1 | 2.45 |
| NC(=O)c1cnc(N[C@H](C2CC2)C(F)(F)F)c2c1[nH]c1cc(-c3cn[nH]c3)ccc12 | 2.34 |
| Cn1cc(-c2ccc3c(c2)[nH]c2c(C(N)=O)cnc(N[C@H](C4CC4)C(F)(F)F)c23)cn1 | 2.36 |
| C[C@H](Nc1ncc(C(N)=O)c2[nH]c3cc(-c4cnn(C)c4)ccc3c12)C(C)(C)C | 2.54 |
| C[C@H](Nc1ncc(C(N)=O)c2[nH]c3cc(-c4cnn(C)c4)ccc3c12)C1CC1 | 2.15 |
| NC(=O)c1cnc(N[C@H](C2CC2)C(F)(F)F)c2c1[nH]c1cc(-c3ccc(N)nc3)ccc12 | 2.57 |
| CC(C)C(Nc1ncc(C(N)=O)c2[nH]c3cc(-c4cnn(C)c4)ccc3c12)C1CC1 (stereo not drawn) | 2.32 |
| C[C@@H](Nc1ncc(C(N)=O)c2[nH]c3cc(-c4cnn(C)c4)ccc3c12)C1CC1 | 2.87 |
| NC(=O)c1cnc(NC(C2CC2)C2CC2)c2c1[nH]c1cc(-c3cccnn3)ccc12 | 2.43 |
